Data origin: ChEMBL document CHEMBL1629636

Reported log10 of MBC values for the following compounds.
Tested on: Borrelia spielmanii
test.protocol: Antimicrobial activity against Borrelia spielmanii isolate PJes after 72 hrs by colorimetric assay
Format: functional
recorded.conditions: Borreliella spielmanii
observed.property: log10 of MBC (log10 of the value in µg/mL)

smiles_representation=CO/N=C(\C(=O)N[C@@H]1C(=O)N2C(C(=O)O)=C(CSc3nc(=O)c(O)nn3C)CS[C@H]12)c1csc(N)n1 observed_property="log10 of MBC" measured=0.30
smiles_representation=C[C@H]1c2cccc(O)c2C(=O)C2=C(O)[C@]3(O)C(=O)C(C(N)=O)=C(O)[C@@H](N(C)C)[C@@H]3[C@@H](O)[C@@H]21.O observed_property="log10 of MBC" measured=0.90
smiles_representation=CC1(C)S[C@@H]2[C@H](NC(=O)[C@H](N)c3ccc(O)cc3)C(=O)N2[C@H]1C(=O)O observed_property="log10 of MBC" measured=1.20
smiles_representation=CO/N=C(\C(=O)N[C@@H]1C(=O)N2C(C(=O)O)=C(COC(N)=O)CS[C@H]12)c1ccco1 observed_property="log10 of MBC" measured=0.90
smiles_representation=CC[C@H]1OC(=O)[C@H](C)[C@@H](O[C@H]2C[C@@](C)(OC)[C@@H](O)[C@H](C)O2)[C@H](C)[C@@H](O[C@@H]2O[C@H](C)C[C@H](N(C)C)[C@H]2O)[C@](C)(OC)C[C@@H](C)C(=O)[C@H](C)[C@@H](O)[C@]1(C)O observed_property="log10 of MBC" measured=-0.30
smiles_representation=CC[C@H]1OC(=O)[C@H](C)[C@@H](O[C@H]2C[C@@](C)(OC)[C@@H](O)[C@H](C)O2)[C@H](C)[C@@H](O[C@@H]2O[C@H](C)C[C@H](N(C)C)[C@H]2O)[C@](C)(O)C[C@@H](C)C(=O)[C@H](C)[C@@H](O)[C@]1(C)O observed_property="log10 of MBC" measured=0.00

* * *

Reported MBC90 values for the following compounds.
System: Borrelia
test.protocol: Antimicrobial activity against Borrelia clinical isolate after 72 hrs by colorimetric assay
Assay type: functional
observed.property: MBC90 (µg/mL)

smiles_representation=CC[C@H]1OC(=O)[C@H](C)[C@@H](O[C@H]2C[C@@](C)(OC)[C@@H](O)[C@H](C)O2)[C@H](C)[C@@H](O[C@@H]2O[C@H](C)C[C@H](N(C)C)[C@H]2O)[C@](C)(O)C[C@@H](C)C(=O)[C@H](C)[C@@H](O)[C@]1(C)O observed_property=MBC90 comparator== measured=4
smiles_representation=CC[C@H]1OC(=O)[C@H](C)[C@@H](O[C@H]2C[C@@](C)(OC)[C@@H](O)[C@H](C)O2)[C@H](C)[C@@H](O[C@@H]2O[C@H](C)C[C@H](N(C)C)[C@H]2O)[C@](C)(OC)C[C@@H](C)C(=O)[C@H](C)[C@@H](O)[C@]1(C)O observed_property=MBC90 comparator== measured=1
smiles_representation=CC1(C)S[C@@H]2[C@H](NC(=O)[C@H](N)c3ccc(O)cc3)C(=O)N2[C@H]1C(=O)O observed_property=MBC90 comparator=> measured=16
smiles_representation=C[C@H]1c2cccc(O)c2C(=O)C2=C(O)[C@]3(O)C(=O)C(C(N)=O)=C(O)[C@@H](N(C)C)[C@@H]3[C@@H](O)[C@@H]21.O observed_property=MBC90 comparator== measured=16
smiles_representation=CO/N=C(\C(=O)N[C@@H]1C(=O)N2C(C(=O)O)=C(COC(N)=O)CS[C@H]12)c1ccco1 observed_property=MBC90 comparator=> measured=8
smiles_representation=CO/N=C(\C(=O)N[C@@H]1C(=O)N2C(C(=O)O)=C(CSc3nc(=O)c(O)nn3C)CS[C@H]12)c1csc(N)n1 observed_property=MBC90 comparator== measured=4
